- Test system: Aspergillus niger Wild type
- experimental_protocol: Microbiological challenge testing in BPW broth, graded subculture counts
- Assay type: cell-based
- settings: A. niger, 0.5% (wt/vol), 13 day
reported_property: Grade
Give bare numbers.

compound	reported_property	test_value
CC1(C)C(O)C(C)(C)C1O (stereo not drawn)	Grade	5
OCC1CCCC(CO)C1 (stereo not drawn)	Grade	5
CC(O)CO (stereo not drawn)	Grade	5

Give one value of Grade per listed compound.
1. O=C([O-])CN(CCN(CC(=O)[O-])CC(=O)O)CC(=O)O.[Na+].[Na+]
2. OCC1CCC(CO)CC1 (stereo not drawn)
3. OCC1CCCCC1CO (stereo not drawn)

Response line:
1: 4; 2: 4; 3: 4
